# System: HS 578T breast
# assay info: NCI tumour cell line growth inhibition, 48 h
readout: TGI

| compound | TGI |
| --- | --- |
| O=c1[nH]c(C2CCCN2)nc2c1oc1ccc(Cl)cc12 (stereo not given) | > 100 µM |

Please state, for each entry, its recorded TGI.
1. Cc1cn(CCCCCCOC(=O)NC(CCCNC(N)=O)C(=O)O)c(=O)[nH]c1=O (stereo not given)
2. COC1CC(C)(NC(=O)C(F)(F)F)C2OC(c3ccccc3)OCC2O1 (stereo not given)
3. O=C1[C@@H]2[C@@H](CN3CN(c4ccccc4)N=C(c4ccccc4)[C@@]23c2ccccc2)C(=O)N1c1ccccc1
4. N[C@@H](CCC(=O)NC(Cc1ccccc1)C(=O)NCP(=O)(O)O)C(=O)O (stereo not given in full)

Result string:
> 100 µM
> 100 µM
> 65.8 µM
> 100 µM

====

# Test system: SW-620 colon
# assay info: NCI tumour cell line growth inhibition, 48 h
readout: TGI

A selection of reference data follows.
| compound | subject of test | TGI |
| --- | --- | --- |
| CC(O)c1nc(C#N)c(N)o1 (stereo not given) | SW-620 colon | > 100 µM |
| Cc1cc(Cl)ccc1NC(=O)CCCC(=O)C1C/C(=N/O)CC/C1=N\O (stereo not given) | SW-620 colon | > 100 µM |
| COC1CC(C)(NC(=O)C(F)(F)F)C2OC(c3ccccc3)OCC2O1 (stereo not given) | SW-620 colon | > 100 µM |
| CC(C)Cc1cnc(CC(C)C)c(=O)[nH]1 | SW-620 colon | > 100 µM |

Query string: # value lookup — system SW-620 colon, readout TGI, item CCOC(=O)c1cc(-c2ccc(OC)cc2)c([N+](=O)[O-])[nH]1
Result string: > 10 µM

====

# Tested on: NCI-H522 lung
# assay info: NCI tumour cell line growth inhibition, 48 h; in the data active = GI50 below about 0.43 µM; inactive = the rest
Response enum: label 1 (active), label 0 (inactive)

Worked examples follow.
| compound | class label |
| --- | --- |
| CSc1nc(Nc2cccc(NC(=O)CCl)c2)c(C#N)c(-c2cccc([N+](=O)[O-])c2)n1 | label 0 |
| CCCCNC(c1ccc(Cl)cc1)C(O)c1ccc(Cl)cc1 (centres undefined) | label 0 |
| O=S(=O)(NC1=NCCN1C(=S)SN1CCn2c1nsc2=S)c1ccc(Cl)cc1 | label 0 |

Would you kindly look at the next entry?
Query string: Query: recorded result category for C/C(=N/NC(=S)Nc1ccccc1)c1nc2ccc(Cl)cc2[nH]1 in this test
Result string: label 1

====

Give measured TGI for each item. Keep answers brief.
# Tested on: A498 renal
# assay info: NCI tumour cell line growth inhibition, 48 h

| molecule | subject of test | TGI |
| --- | --- | --- |
| O=C(O)CSC(CC(=O)c1ccc(Cl)cc1)c1ccc(Cl)cc1 (stereo not drawn) | A498 renal | > 100 µM |

Quick one: give me TGI for each item below, same order please.
1. COc1c2ccoc2nc2c(OC)c(OCC(O)C(C)(C)O)ccc12 (stereo not drawn)
2. C[C@]12CC[C@H]3[C@@H](CC=C4C[C@@H](N5CCCC5)CC[C@@]43C)[C@@H]1C[C@H](N1CCCCC1)[C@@H]2O

Result string:
> 100 µM
> 100 µM

====

# System: SN12C renal
# assay info: NCI tumour cell line growth inhibition, 48 h
readout: GI50

In the examples that follow, each entry is paired with its recorded GI50.
| compound | GI50 |
| --- | --- |
| Cn1c(I)c(C#C[Si](C)(C)C)c(=O)n(C(=O)c2ccccc2)c1=O | 6260 nM |
| CCCCCCCC/C=C/CCCCCCCC1=NC(C)(C)CN1C(C)(C)CO | 2250 nM |
| O=c1[nH]c(C2CCCN2)nc2c1oc1ccc(Cl)cc12 (centres undefined) | > 100000 nM |

Query string: Request - read-out GI50 | tested on SN12C renal | compound CCC[CH2][Sn-]([CH2]CCC)([CH2]CCC)[O]C(=O)C(C)C
Result string: 158 nM

====

Kindly state TGI for each of the entries shown.
# System: OVCAR-8 ovarian
# assay info: NCI tumour cell line growth inhibition, 48 h

| molecule | readout | reported result |
| --- | --- | --- |
| Cc1cc(Cl)ccc1NC(=O)CCCC(=O)C1C/C(=N/O)CC/C1=N\O (stereo not drawn) | TGI | > 100 µM |

I need TGI for every entry listed below, if you could help.
1. COc1ccc(-c2ccc(CC(=O)O)cc2)cc1OC
2. O=C(CC1=Nc2nnc(CCCCCCCc3nnc4n3C(=O)C(CC(=O)c3ccc5ccccc5c3)=N4)n2C1=O)c1ccc2ccccc2c1

Result string:
["> 100 µM", "> 100 µM"]

====

# System: SNB-19 CNS
# assay info: NCI tumour cell line growth inhibition, 48 h
readout: TGI

Consider the worked cases shown below.
| compound | TGI |
| --- | --- |
| Cc1n[nH]c2ccccc2c1=O | > 100 µM |
| COc1ccc(-c2ccc(C(=O)C=P(c3ccccc3)(c3ccccc3)c3ccccc3)cc2)cc1 | > 100 µM |
| CC(C)(C)C#COC(=O)c1ccccc1 | > 100 µM |
| Cc1nc2c(Br)cc(Br)cc2c(=O)n1-c1ccccc1NC1OC(CO)C(O)C(O)C1O (stereo not given) | > 100 µM |

Now let's try a different one.
Query string: For the compound C=C(NC(=O)C(=C)NC(=O)c1ccc2c(n1)-c1coc(n1)C(=C)NC(=O)C(=C)NC(=O)c1nc(oc1C)C(=C)NC(=O)C(C(C)(C)O)NC(=O)C(=C)NC(=O)c1coc(n1)/C(=C/C)NC(=O)[C@H]([C@@H](C)O)NC(=O)c1csc-2n1)C(N)=O (stereo not given in full) , what TGI is on record?
Result string: > 87.5 µM

====

# Tested on: DMS 273 small cell lung
# assay info: NCI tumour cell line growth inhibition, 48 h
What TGI was measured for each of the following?
Answers are plain numbers, in µM.

Please review the following examples before continuing.
| input smiles | TGI [µM] |
| --- | --- |
| COC1(OC)C2(Cl)C3=CCCC=C3C1(Cl)C(Cl)=C2Cl | 39.8 |
| Clc1ccc2c(NCCCCCCNc3ccnc4cc(Cl)ccc34)ccnc2c1 | 11.7 |

Now let's try a different one.
Query string: Reported TGI for CC(=O)C(=Cc1cn(C)c(=O)n(C)c1=O)C(C)=O : what is it?
Result string: 225

====

# Tested on: SF-295 CNS
# assay info: NCI tumour cell line growth inhibition, 48 h
readout: TGI

Please report TGI for every entry that follows.
1. O=C(O)C(Cc1ccccc1)NCc1c(O)ccc2c(-c3ccccc3)cc(=O)oc12 (stereo not drawn)
2. COc1cc2c(cc1O)C1Cc3ccc(OC)c(O)c3C[N+]1(C)CC2 (stereo not drawn)
3. COc1nc(Cl)nc(N[C@H](C)c2c3ccccc3cc3ccccc23)n1

Result string:
> 100 µM
> 100 µM
31 µM

====

Hi there, I'd appreciate the recorded TGI for every entry that follows.
# Test system: SF-539 CNS
# assay info: NCI tumour cell line growth inhibition, 48 h

Check out these entries, answers already filled in.
| compound | TGI |
| --- | --- |
| N#Cc1nc(CCc2nc(C#N)c(N)o2)oc1N | > 10 µM |
| CC(C)C[C@@H](N)[C@@H](O)C(=O)N[C@H](C(=O)N[C@H](C(=O)N[C@@H](CC(=O)O)C(=O)O)C(C)C)C(C)C | > 20 µM |
| O=C1c2ccccc2-c2nc3ccncc3n21 | > 100 µM |
| COc1ccc(-c2ccc(C3CC(c4ccccc4)=NN3)o2)c([N+](=O)[O-])c1 (stereo unspecified) | > 100 µM |
| O=c1c(Cc2ccccc2)c(O)cc2n1CCC2 | > 100 µM |

Next compound, please.
Query string: Find the measured TGI: item COc1cc(C)c2c(c1)CN1CN2Cc2cc(OC)cc(C)c21 , target or system SF-539 CNS.
Result string: > 100 µM

====

For each record, write down the corresponding TGI.
# Tested on: BT-549 breast
# assay info: NCI tumour cell line growth inhibition, 48 h
One number for each entry, in µM.

Reference set (2 entries):
| molecule | subject of test | readout | value units | reported result |
| --- | --- | --- | --- | --- |
| COP(=O)(OC)OCN(C)CC/C=C(\C)CC/C=C(\C)CCC=C(C)C | BT-549 breast | TGI | µM | 30 |
| C=C1C(=O)O[C@@H]2/C=C(/C)[C@@H](OC(C)=O)C/C=C(\C)C(O)[C@@H](OC(=O)/C(C)=C\C)C12 (stereo not given in full) | BT-549 breast | TGI | µM | 44.3 |

Query string: // returns reported TGI for input COc1cc2c(/C=C3/C(=O)Nc4ccccc43)c(Cl)n(Cc3ccc(Cl)cc3)c2cc1C
Result string: 1.92
